The measurements presented in this section are drawn from ChEMBL document CHEMBL6092202.

- METHOD SUMMARY: Stability in plasma (unknown origin) assessed as half life
- Format: ADME, cell-free
MEASURED PARAMETER: half-life

Hello, please tell me recorded half-life for this one: `CCN(CC)CCOc1cc2ncnc(Nc3cc(OC)c(Cl)cc3Cl)c2cc1OC`
> 6 h

====

- SUBJECT OF TEST: Receptor-interacting serine/threonine-protein kinase 2 (Homo sapiens, UniProt O43353)
- Sequence (O43353 whole entry, the tested form may be a part): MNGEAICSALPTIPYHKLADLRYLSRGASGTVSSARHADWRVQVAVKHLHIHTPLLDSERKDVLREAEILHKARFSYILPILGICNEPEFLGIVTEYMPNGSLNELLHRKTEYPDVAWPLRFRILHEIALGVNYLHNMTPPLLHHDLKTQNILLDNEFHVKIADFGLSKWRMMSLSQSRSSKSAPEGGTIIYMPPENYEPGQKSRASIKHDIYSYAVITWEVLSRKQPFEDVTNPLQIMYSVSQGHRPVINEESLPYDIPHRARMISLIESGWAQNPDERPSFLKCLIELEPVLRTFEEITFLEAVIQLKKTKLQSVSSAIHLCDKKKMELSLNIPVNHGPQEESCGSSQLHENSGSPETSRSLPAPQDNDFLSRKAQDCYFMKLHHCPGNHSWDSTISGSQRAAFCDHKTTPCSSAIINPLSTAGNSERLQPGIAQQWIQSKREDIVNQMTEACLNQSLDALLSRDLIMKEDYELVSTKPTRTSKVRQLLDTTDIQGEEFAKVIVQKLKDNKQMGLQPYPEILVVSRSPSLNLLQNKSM
- METHOD SUMMARY: Inhibition of human recombinant RIPK2 (1 to 317 residues) expressed in Sf21 insect cells using MBP as substrate preincubated for 10 mins followed by substrate addition and measured after 1 hr by ADP-Glo luminescence assay
MEASURED PARAMETER: IC50 (nM)
The reply should contain only the number, in nM.

In one line, give reported IC50 of the entry `CCCS(=O)(=O)Nc1cc(-c2cc(-c3ccc(N4CCNCC4)cc3)cnc2N)cc(F)c1OC` .
1.93
